# interaction score per entry
Biological target: T1, P6-AA-1HGe-M
T1 chain: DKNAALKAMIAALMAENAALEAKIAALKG
Experiment: two-hybrid library CCmax;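 further: natural log of median RNA to DNA barcode read ratio; higher means stronger binding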
Settings: mean of both orientations
// response body must contain only the number

In plain terms, DENAALEASIAALSAKNAALKAEIAALEG [P5-AA-1HGe-S] has a documented interaction score of 1.86
